Source listed as ChEMBL document CHEMBL1151717.

# AUC(0-inf) per entry
experiment: AUC (0 to infinity) in Wistar rat at 25 mg/kg, po; format: ADME, organism-based; design: time infinity, dose 25 mg/kg, route oral; conditions: plasma
measured-property: AUC(0-inf) (µg·h/mL)

INSERT INTO assay_data (test_smiles, value_reported) VALUES
  ('O=C1CCc2cc(-c3cncc4ccccc34)ccc2N1', 1.66),
  ('O=C1CCc2cc(-c3cccnc3)ccc2N1', 4.76);

====

experiment: AUC (0 to infinity) in Wistar rat at 1 mg/kg, iv; format: ADME, organism-based; parameters: time infinity, dose 1 mg/kg, route intravenous; details: plasma
measured-property: AUC(0-inf) (ng·h/mL)

INSERT INTO measurements (test_smiles, value_reported) VALUES
  ('O=C1CCc2cc(-c3cccnc3)ccc2N1', 270);

====

assay: Oral bioavailability in Wistar rat at 25 mg/kg; conditions: in vivo
measured-property: bioavailability

INSERT INTO measurements (test_smiles, value_reported) VALUES
  ('O=C1CCc2cc(-c3cccnc3)ccc2N1', '71%');

====

assay: Cmax in Wistar rat at 5 mg/kg, po by cassette dosing; format: ADME, organism-based; parameters: dose 5 mg/kg, route oral; details: in vivo
measured-property: Cmax (ng/mL)

INSERT INTO results (compound, unit_descriptor, value_reported) VALUES
  ('COc1cncc(-c2ccc3c(c2)CCC(=O)C3)c1', 'ng/mL', 35),
  ('O=C1CCc2cc(-c3cccnc3)ccc2N1', 'ng/mL', 261),
  ('CN1C(=O)CCc2cc(-c3cccnc3)ccc21', 'ng/mL', 86),
  ('O=C1CCc2cc(-c3cccnc3)ccc21', 'ng/mL', 300),
  ('N#Cc1ccc(C2CCCc3cncn32)cc1 (stereo unspecified)', 'ng/mL', 471),
  ('O=C1CCc2cc(-c3cccnc3)ccc2C1', 'ng/mL', 104);

====

molecular target: CYP1A2 (Homo sapiens, UniProt P05177); test: Inhibition of human recombinant CYP1A2 expressed in baculovirus-infected insect microsomes at 2 uM; assay type: ADME, Microsome
Sequence (P05177 whole entry): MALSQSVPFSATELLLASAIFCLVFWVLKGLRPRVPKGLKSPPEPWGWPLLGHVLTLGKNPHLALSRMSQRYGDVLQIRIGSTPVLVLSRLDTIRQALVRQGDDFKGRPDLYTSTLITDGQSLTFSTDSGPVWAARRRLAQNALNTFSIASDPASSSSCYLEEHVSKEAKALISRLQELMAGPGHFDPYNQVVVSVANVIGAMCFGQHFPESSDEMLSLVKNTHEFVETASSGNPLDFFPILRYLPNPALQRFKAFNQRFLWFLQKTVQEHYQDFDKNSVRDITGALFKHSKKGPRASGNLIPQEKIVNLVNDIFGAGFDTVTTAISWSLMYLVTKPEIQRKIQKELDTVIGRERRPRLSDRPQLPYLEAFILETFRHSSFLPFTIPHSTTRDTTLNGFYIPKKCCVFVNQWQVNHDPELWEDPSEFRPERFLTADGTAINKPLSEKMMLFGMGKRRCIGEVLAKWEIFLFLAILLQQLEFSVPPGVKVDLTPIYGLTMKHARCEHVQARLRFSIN
# inhibition at 2 µM per entry
measured-property: inhibition at 2 µM (%)

INSERT INTO assay_data (compound, measured_property, unit_descriptor, comparative_sign, value_reported) VALUES
  ('OC1CCc2cc(-c3cccnc3)ccc2C1 (stereo not drawn)', 'inhibition at 2 µM', '%', '=', 74),
  ('O=C1CCc2cc(-c3cccnc3)ccc21', 'inhibition at 2 µM', '%', '=', 57),
  ('COc1cncc(-c2ccc3c(c2)CCC(=O)N3C)c1', 'inhibition at 2 µM', '%', '=', 20),
  ('O=C1CCc2cc(-c3cncc4ccccc34)ccc2N1', 'inhibition at 2 µM', '%', '<', 5),
  ('COc1cncc(-c2ccc3c(c2)CCC(=O)C3)c1', 'inhibition at 2 µM', '%', '=', 57),
  ('CCN1C(=O)CCc2cc(-c3cccnc3)ccc21', 'inhibition at 2 µM', '%', '=', 36),
  ('CCOC1CCc2cc(-c3cccnc3)ccc2C1 (stereo not drawn)', 'inhibition at 2 µM', '%', '=', 73),
  ('S=C1CCc2cc(-c3cccnc3)ccc2N1', 'inhibition at 2 µM', '%', '=', 77),
  ('COc1cncc(-c2ccc3c(c2)CCC(=O)N3)c1', 'inhibition at 2 µM', '%', '=', 25),
  ('O=C1Cc2cc(-c3cccnc3)ccc2N1', 'inhibition at 2 µM', '%', '=', 25),
  ('N#CC1CCc2cc(-c3cccnc3)ccc2C1 (stereo not drawn)', 'inhibition at 2 µM', '%', '=', 72),
  ('c1cncc(-c2ccc3ccccc3c2)c1', 'inhibition at 2 µM', '%', '=', 99),
  ('O=C1CCc2cc(-c3cccnc3)ccc2N1', 'inhibition at 2 µM', '%', '=', 50),
  ('N#CC1=Cc2ccc(-c3cccnc3)cc2CC1', 'inhibition at 2 µM', '%', '=', 90),
  ('COC1CCc2cc(-c3cccnc3)ccc2C1 (stereo not drawn)', 'inhibition at 2 µM', '%', '=', 80),
  ('O=C1CCc2cc(-c3cccnc3)cc(Cl)c2N1', 'inhibition at 2 µM', '%', '=', 14),
  ('CN1C(=O)CCc2cc(-c3cccnc3)ccc21', 'inhibition at 2 µM', '%', '=', 53),
  ('O=C1CCc2cc(-c3cccnc3)ccc2C1', 'inhibition at 2 µM', '%', '=', 60);
